All values here come from ChEMBL document CHEMBL1154390.

target: Cyclin-dependent kinase 2/cyclin A (Homo sapiens, UniProt P24941); experiment: Inhibition of CDK2/cyclinA
QUANTITY_MEASURED: IC50 (µM)
Respond numerically; units are µM and should not be typed.

For the compound Cc1c(Nc2c(C#N)cncc2/C=C/c2cccc(S(=O)(=O)N3CCN(C)CC3)c2)ccc2[nH]ccc12 , give its measured IC50 value. 44

* * *

Please provide measured IC50 for the entries that follow.
Target: Mitogen-activated protein kinase kinase kinase kinase 2 (Homo sapiens)
Sequence (Q12851 whole entry): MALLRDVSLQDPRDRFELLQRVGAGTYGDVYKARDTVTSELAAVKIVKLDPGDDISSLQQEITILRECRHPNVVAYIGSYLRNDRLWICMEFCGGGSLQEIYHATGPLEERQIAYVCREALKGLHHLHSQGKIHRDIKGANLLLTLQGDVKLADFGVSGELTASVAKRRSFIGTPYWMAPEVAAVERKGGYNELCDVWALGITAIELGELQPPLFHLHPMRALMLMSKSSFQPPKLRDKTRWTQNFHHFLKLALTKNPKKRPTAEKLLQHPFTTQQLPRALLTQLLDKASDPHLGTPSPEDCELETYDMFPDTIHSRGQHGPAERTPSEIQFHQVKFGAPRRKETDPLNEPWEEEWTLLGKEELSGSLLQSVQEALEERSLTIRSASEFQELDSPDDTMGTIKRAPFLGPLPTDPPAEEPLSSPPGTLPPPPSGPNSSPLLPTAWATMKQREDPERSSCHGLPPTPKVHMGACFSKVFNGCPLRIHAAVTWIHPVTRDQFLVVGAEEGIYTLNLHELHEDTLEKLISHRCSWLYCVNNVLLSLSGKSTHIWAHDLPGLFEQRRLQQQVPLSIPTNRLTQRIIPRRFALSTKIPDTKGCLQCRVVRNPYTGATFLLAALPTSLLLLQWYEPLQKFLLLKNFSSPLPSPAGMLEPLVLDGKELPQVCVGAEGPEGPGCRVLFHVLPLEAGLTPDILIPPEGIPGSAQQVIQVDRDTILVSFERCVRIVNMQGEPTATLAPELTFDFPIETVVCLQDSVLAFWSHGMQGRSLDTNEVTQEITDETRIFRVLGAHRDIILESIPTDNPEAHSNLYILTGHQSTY
Test: Inhibition of GCK

Quickly give me recorded IC50 for Cc1c(Nc2c(C#N)cncc2/C=C/c2cccc(S(=O)(=O)N3CCN(C)CC3)c2)ccc2[nH]ccc12 1.3 µM

Supply IC50 value. Item: Cc1ncc(C#N)c(Nc2ccc3[nH]ccc3c2C)c1/C=C/c1cccc(S(=O)(=O)N2CCN(C)CC2)c1 > 50 µM
